Origin of values: paper PMC6270455

# Test system: photosynthetic electron transport (PET) in spinach chloroplasts
# procedure_summary: Inhibition of photosynthetic electron transport (PET) in spinach chloroplasts (DCPIP photoreduction)
# Format: biochemical, Spinacia oleracea L.
# condition_info: phosphate buffer pH 7.2, DCPIP acceptor
property_label: IC50 (µM)

sample_smiles | measured_result
O=C(Nc1ccc([N+](=O)[O-])cc1)c1cc2ccccc2cc1O | 188
O=C(Nc1ccccc1C(F)(F)F)c1cc2ccccc2cc1O | 105
O=C(Nc1cccc([N+](=O)[O-])c1)c1cc2ccccc2cc1O | 16.9
COc1cccc(NC(=O)c2cc3ccccc3cc2O)c1 | 53.4
COc1ccccc1NC(=O)c1cc2ccccc2cc1O | 59.5
O=C(Nc1ccccc1Br)c1cc2ccccc2cc1O | 43.2
O=C(Nc1ccccc1[N+](=O)[O-])c1cc2ccccc2cc1O | 107
